System: Human alphaherpesvirus 2
Assay: In vitro maximum tolerated level against herpes simplex virus-2 (HSV-2) by plaque-reduction assay in vero cells
Assay type: functional

molecule	quantity-unit	censor-symbol	MTL
NC(=O)c1cn(-c2ccc(F)cc2)c2cc(-c3cc[n+]([O-])cc3)ccc2c1=O	µg/mL	>	12.5
CCn1cc(C(N)=O)c(=O)c2ccc(-c3ccc([N+](=O)[O-])cc3)cc21	µg/mL	>	100
Nc1nc2c(ncn2COCCO)c(=O)[nH]1 [ACYCLOVIR]	µg/mL	>	200
CCn1cc(C(N)=O)c(=O)c2ccc(Cl)cc21	µg/mL	>	100
CCn1cc(C(N)=O)c(=O)c2ccc(-c3c(C)cncc3C)cc21	µg/mL	=	12.5
CCn1cc(C(N)=O)c(=O)c2ccc(-c3ccccn3)cc21	µg/mL	=	25
NC(=O)c1cn(C2CC2)c2cc(-c3ccncc3)ccc2c1=O	µg/mL	=	25
CCn1cc(C(N)=O)c(=O)c2ccc(-n3ccnc3)cc21	µg/mL	=	50
NC(=O)c1cn(-c2ccccc2)c2cc(-c3ccncc3)ccc2c1=O	µg/mL	=	6.25
CCn1cc(C#N)c(=O)c2ccc(-c3ccncc3)cc21	µg/mL	=	100
Oc1nc2c(O)c3ccc(-c4ccncc4)cc3n(-c3ccc(F)cc3)c-2n1	µg/mL	>	100
NC(=O)c1c(N)n(-c2ccc(F)cc2)c2cc(-c3ccncc3)ccc2c1=O	µg/mL	>	100
